# runDescription: Toxicity study of LD030 on BALB/c mice
# Assay type: in vivo
# runParameters: BALB/c, mouse, in vivo; short-term toxicological experiment, under continuous treatment; read-out: half-lethal dose LD50
reportedMetric: LD50 (mg/kg)

[
  {
    "compound": "CC(=O)OC(C)(C)C(=O)CCC(C)C1CC[C@@]2(C)C34CC[C@H]5C(C)(C)[C@@H](O)CC[C@]5(C)C3(CC[C@]12C)O4 (stereo partly shown) [LD030]",
    "reportedMetric": "LD50",
    "units": "mg/kg",
    "readoutNumber": 4
  }
]

====

# Test system: non-small lung cancer cell line A549
# runDescription: MTT assay, compounds related to LD030 on A549 cells
# Assay type: cell-based
# runParameters: Homo sapiens, A549; 0.1 μM, 48 hours; read-out: Effects on A549 Cells (inhibitory percentage)

[
  {
    "molecule": "CC(=O)O[C@H]1CC[C@]2(C)C3CC[C@]4(C)C(C(C)CCC(O)C(C)(C)O)CC[C@@]4(C)C3CC[C@H]2C1(C)C (some centres unmarked)",
    "inhibition at 0.1 µM, %": 3.24
  },
  {
    "molecule": "CC(=O)OC(CCC(C)C1CC[C@@]2(C)C3=C(CC[C@]12C)[C@@]1(C)CCC(=O)C(C)(C)[C@@H]1CC3)C(C)(C)OC(C)=O (some centres unmarked)",
    "inhibition at 0.1 µM, %": 21.3
  },
  {
    "molecule": "CC(=O)O[C@H]1CC[C@]2(C)C3=C(CC[C@H]2C1(C)C)[C@]1(C)CCC(C(C)CCC(O)C(C)(C)O)[C@@]1(C)CC3 (some centres unmarked)",
    "inhibition at 0.1 µM, %": 3.13
  },
  {
    "molecule": "CC(=O)O[C@H]1CC[C@@]2(C)[C@@H](CCC34OC32CC[C@]2(C)C(C(C)CCC(O)C(C)(C)O)CC[C@@]42C)C1(C)C (some centres unmarked)",
    "inhibition at 0.1 µM, %": -1.4
  },
  {
    "molecule": "CC(CCC(O)C(C)(C)O)C1CC[C@@]2(C)C34CC[C@H]5C(C)(C)[C@@H](O)CC[C@]5(C)C3(CC[C@]12C)O4 (some centres unmarked)",
    "inhibition at 0.1 µM, %": 1.38
  },
  {
    "molecule": "CC(=O)O[C@H]1CC[C@]2(C)C3=C(CC[C@H]2C1(C)C)[C@]1(C)CCC(C(C)CCC2OC2(C)C)[C@@]1(C)CC3 (some centres unmarked)",
    "inhibition at 0.1 µM, %": 21.8
  },
  {
    "molecule": "CC(CCC(=O)C(C)(C)O)C1CC[C@@]2(C)C34CC[C@H]5C(C)(C)C(=O)CC[C@]5(C)C3(CC[C@]12C)O4 (some centres unmarked)",
    "inhibition at 0.1 µM, %": 25.2
  },
  {
    "molecule": "CC(=O)O[C@H]1CC[C@@]2(C)[C@@H](CCC34OC32CC[C@]2(C)C(C(C)CCC3OC3(C)C)CC[C@@]42C)C1(C)C (some centres unmarked)",
    "inhibition at 0.1 µM, %": 2.51
  }
]

These entries and their values trace back to patent US9522935B2.
